Experimental Details: soluble on expression in E. coli; label from the status in PepcDB or PDB records

{"columns": ["Sequence Entry", "soluble on expression in E. coli"],
 "data": [
  ["MAERETYADFSVVEKQRNFLTAEEFPEGPYGSPRRDDAPVENKSTPWKEGQRHYSAFNYEFKSFHQNIPRRDPAAHPPHDDPHQSEQFPYNEGE", "not soluble"],
  ["MGSDKIHHHHHHMITDPQIKACIHQHHLFSALGEEELCRLLGQAAKITLAAHENLFYQGDLAKRFYLVIQGHLQLYRTSLQGQDKVIEVVREGRTFAEALMFSRQASYPVSAQAVSHCTLVSFDSEGYLAMLRGNPDACIAIMAEMSVRLRKDINEVELLSVQNAQSRLLLFLLRNMQKIGDNQGRVELDIPKRVLASRLSIQPETFSRLMKKMVTEGIIGESRGAIDIKDLAKLYTSANMPLANQAIQTSEPLIRSGKAPCQQIAIEMV", "not soluble"],
  ["MGSDKIHHHHHHMAILTITKQFGSGGGEIGSAVANLLGYEYIPLKRVFEEAGQAGNRIKKLADEVSKSVPGLWERTDWSFLAFVAFSQSTILNYALQNNIVVMTRGGNMLLKSIPHALRILVTAPFDVRVRRIMEREEISEEIAVMMAKKADREMAVTIQQIYGTNWMDPTEYDQVIDTSKQNWNEIARSLKDSLMAKEKDFTAEAQKILNMKALATYIKVKIMTSPAFITPTLEVEMKGDILVISGVVRNPDQHKRIEEEVKKLAGDRYVEFHIHYRGSWPFRGI", "not soluble"]
]}

###

Experimental Details: soluble on expression in E. coli; label from the status in PepcDB or PDB records

{"columns": ["Sequence Entry", "soluble on expression in E. coli"],
 "data": [
  ["VGLIEKQKVQDSDFIEHKEVGLLISHDGIYFKFEPEQLAKHLVEFKSEQDQLIFGGVVQNSDYFFMVTSLGNIITVPIYKTLSNTKTKMNELLAKKPILMEDEKLVLAGIVNPDKME", "soluble"],
  ["MLNVVKRDGRQVVFDSNKIFNAIKGAADEIGYDIKQSDILELTQKVIGRVEDLKIREISVEEVQNLVEEVLLENGNKEIGMAYCTYRKERTKVRE", "not soluble"],
  ["MSLVERVILIVLDSVGAGEMPDADKYGDKGSDTIGNISKAVGGLKLPDMVKMGLGNISGIKGVDKVQYPIGAFGKLKEMSKGKDTVTGHWEMSGVILEEPLNTYPNGFPKDIIDEFEKKIGRKVIGNKVASGTEIIKELGDEHIKTGCPIVYTSADSVFQVAAHEEIIPLDELYKICKVAREMLVDDRTVGRVIARPFVGKNSNYTRTSNRRDFALDPFNKTMLEYIKENKSNVMCVGKIEDIFNKKGVTEAVHIKNNMDGVDKTLEYMKTDKKGLIFTNLVDFDMLYGHRNDPKGYAKALEEFDGRINEIKTNMKDYDVLMITADHGCDPTTESTDHSREYIPFIAYGKDIKGGADIKIRDSFSDIGKTILDLLQVENNLVGKSFKDIIMKEGHHHHHH", "not soluble"],
  ["MSKAFVDGLLQSSKVVVFSKSYCPYCHKARAALESVNVKPDALQWIEIDERKDCNEIQDYLGSLTGARSVPRVFINGKFFGGGDDTAAGAKNGKLAALLKETGAL", "not soluble"],
  ["MEKILEKIEEFFGFIPEIFKVLEDEPEILEAYYDKMEKILSNDALPLVTKELIGVGAAAALGSEHCLKTHIKAAKRLDAGGDEILLAILIGASMAESTALSRSLRVFKEERMDL", "not soluble"],
  ["AAAAAAMIVQRVVLNSRPGKNGNPVAENFRMEEVYLPDNINEGQVQVRTLYLSVDPYMRCRMNEDTGTDYITPWQLSQVVDGGGIGIIEESKHTNLTKGDFVTSFYWPWQTKVILDGNSLEKVDPQLVDGHLSYFLGAIGMPGLTSLIGIQEKGHITAGSNKTMVVSGAAGACGSVAGQIGHFLGCSRVVGICGTHEKCILLTSELGFDAAINYKKDNVAEQLRESCPAGVDVYFDNVGGNISDTVISQMNENSHIILCGQISQYNKDVPYPPPLSPAIEAIQKERNITRERFLVLNYKDKFEPGILQLSQWFKEGKLKIKETVINGLENMGAAFQSMMTGGNIGKQIVCISEEISL", "soluble"],
  ["MGSDKIHHHHHHMMNERIKQRRKELGLTQPSIAKTIGLTKATISLWESGSTSPKGENLHALAKALRCAPEFLLFGNDSIKPEPNAEWAGGFETWGSNSPLGDDEVEIPFYMEVELAAGDGIIDCREYQGPKLRFAKSTLKRQGVTSDHAACVKVNGNSMEPVLPNGSTVGVDTAHTDIVDGKMYAINHDGMLRVKMLYKLPGGGLRLRSYNLDEYPDERLDAEELKQVKVIGKVFWYSVLV", "not soluble"]
]}
